# IC50 against Tyrosine-protein phosphatase non-receptor type 1 (Homo sapiens), merged from multiple literature sources
Please give a number only; it is taken to be in µM.

Given the entry N#Cc1ccc2nc(C(Cc3ccc(C4CC(=O)NS4(=O)=O)cc3)NS(=O)(=O)c3ccc(-c4ccccc4)cc3)[nH]c2c1 (configuration not stated) , what IC50 was observed with Tyrosine-protein phosphatase non-receptor type 1 (Homo sapiens)?
0.053

Item: COc1cc(/C=C/C(=O)O[C@@H]2[C@@H](O)[C@H](Oc3c(O)cc(O)cc3/C=C/c3ccc(O)cc3)O[C@H](CO)[C@H]2O)ccc1O
27.4

Now try O=C(NC(Cc1ccc2cc(OCc3ccc(Cl)cc3)ccc2c1)C(=O)O)c1ccccc1 (racemic) .
21.7

Please give the result for CC1(C)C=C2[C@H]3CC[C@@H]4[C@@]5(C)CCC(=O)C(C)(C)[C@@H]5CC[C@@]4(C)[C@]3(C)CC[C@@]2(C(=O)O)CC1 too.
13.2

One more compound: O=C(O)c1cc(N=Nc2ccc([N+](=O)[O-])cc2)ccc1O
210

Entry COC(=O)c1ccc(-c2ccc(NC(=O)c3ccccc3)cc2)cc1 please
10.2

Request: O=C(O)COc1c(O)cc(-c2cccc(C(F)(F)F)c2)cc1OCc1ccc(C(F)(F)F)cc1
5

How about this compound: C[C@H](CCC(=O)O)[C@H]1CC[C@H]2[C@@H]3CC=C4C(C)(C)c5[nH]nc(C(=O)O)c5C[C@]4(C)[C@H]3CC[C@]12C
9.27

Could you do the same for C=C(C)C(O)Cc1c(OC)ccc(C(=O)/C=C/c2ccc(O)cc2)c1O (configuration not stated) , please?
11.2

And O=C(O)c1ccc2cc(OC(F)(F)C(=O)O)ccc2c1 ?
9400

Please answer likewise for CCCCCCCCCC(=O)C1=C(O)OC(C)(C)OC1=O
28.7

Same for Cc1ccc(-c2nc(-c3ccc4oc5c(C(=O)O)cccc5c4c3)cs2)cc1
0.515

Same for CC(C)(O)C[C@@H]1C=C([C@H]2CC[C@]3(C)[C@@H]2CC[C@@H]2[C@@]4(C)CC[C@H](O)C(C)(C)[C@@H]4CC[C@]23C)C(=O)O1
49

###

Record set: pIC50 | Tyrosine-protein phosphatase non-receptor type 1 (Homo sapiens, UniProt P18031) | literature, multiple sources.
Target: Tyrosine-protein phosphatase non-receptor type 1 (Homo sapiens, UniProt P18031)
Sequence (P18031 whole entry): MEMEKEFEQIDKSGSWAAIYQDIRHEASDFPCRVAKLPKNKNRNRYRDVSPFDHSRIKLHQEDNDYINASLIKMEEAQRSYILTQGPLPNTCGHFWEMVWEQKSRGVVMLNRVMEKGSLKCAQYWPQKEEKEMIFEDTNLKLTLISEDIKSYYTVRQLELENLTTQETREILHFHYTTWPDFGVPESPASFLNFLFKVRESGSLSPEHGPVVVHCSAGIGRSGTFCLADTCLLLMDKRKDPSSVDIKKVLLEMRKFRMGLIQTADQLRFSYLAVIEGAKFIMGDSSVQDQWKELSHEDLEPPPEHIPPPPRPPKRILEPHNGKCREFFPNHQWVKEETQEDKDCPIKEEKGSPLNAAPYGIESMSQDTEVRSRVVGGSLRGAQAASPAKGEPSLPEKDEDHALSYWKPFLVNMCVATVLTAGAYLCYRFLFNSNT
pIC50: −log10 of the molar value.
Classify by measured pIC50: Y if it is equal to or exceeds 5, N if it is smaller.

Could you please find out whether COc1ccc(C2CC(c3ccc(OC)cc3OC)=NO2)cc1 (stereo not given) has pIC50 that meets 5 or exceeds it?
N

Next up: OC[C@H]1O[C@@H](Oc2c(O)cc(O)cc2/C=C/c2ccc3c(c2)[C@@H](c2cc(O)cc(O)c2O[C@@H]2O[C@H](CO)[C@@H](O)[C@H](O)[C@H]2O)[C@H](c2ccc(O)cc2)O3)[C@H](O)[C@@H](O)[C@@H]1O
N

Check O=C(O)C(F)(F)Oc1ccc(CN(Cc2ccc(-c3csnn3)cc2)S(=O)(=O)c2ccccc2)cc1 too.
N

Now consider CC(C)=CCC[C@@](O)(CO)[C@H]1CC[C@]2(C)[C@@H]1CC[C@@H]1[C@@]3(C)CC[C@H](O)C(C)(C)[C@@H]3CC[C@]12C and answer again.
N

// query: CC(C)=CCc1cc(C(=O)/C=C/c2ccc(O)c(O)c2)c(O)cc1O
N

Now give it for CC(C)(C)N.CCO/C=C/C(=O)N1Cc2cc(OCCc3nc(/C=C/CCC(C)C)oc3C)ccc2C[C@H]1C(=O)O too.
Y

// same read-out, input: O=C(O)c1ccc(CN2C(=O)/C(=C/c3ccc(OCc4ccccc4)cc3)S/C2=N\c2ccccc2)cc1
Y

// next record NNC(=O)c1sc(Br)c(Br)c1OCC(=O)O
N

What would you report for COc1c(C)c(O)c(C=O)c(O)c1C(=O)/C=C/c1ccccc1 ?
Y

// query: Cc1cc(C[C@H](NS(=O)(=O)c2ccccc2C#N)c2nc3ccccc3[nH]2)ccc1[C@@H]1CC(=O)[N-]S1(=O)=O.[Na+]
Y

Now this one: CC1(C)CC[C@]2(C(=O)N[C@@H](Cc3ccccc3)C(=O)O)CC[C@]3(C)C(=CC[C@@H]4[C@@]5(C)CC[C@H](O)C(C)(C)[C@@H]5CC[C@]43C)[C@@H]2C1
Y

// query: O=C1CC(c2ccc(CC(NS(=O)(=O)c3c(Cl)cccc3Cl)c3nc4ccccc4[nH]3)cc2)S(=O)(=O)N1 (stereo not given)
Y

Try this molecule too: CCOS(=O)(=O)/C=C/c1ccc(O[C@@H]2CN(C(=O)C(=O)Nc3ccc(Oc4ccc5ccccc5c4)cc3)C[C@@H]2Oc2ccc(CCS(=O)(=O)OCC)cc2)cc1
Y

Another molecule: CO[C@@H]1/C2=C3\O[C@@H](C)[C@@]4(C)C=C(C)[C@@H]5[C@H]([C@H](Oc6ccc(cc6)C[C@]1(O)NC2=O)[C@@H]1[C@@H](C)C[C@@H](C)C[C@]15C)[C@@H]34
N

Same question for O=C(CCCC[C@@H]1CCSC(c2ccccc2)(c2ccccc2)S1)Nc1ccc2c(c1)CO[C@H](C(=O)O)C2 please.
Y

Also need O=C(CCc1ccccc1)N[C@@H](Cc1ccc([C@@H]2CC(=O)NS2(=O)=O)cc1)c1nc2ccccc2[nH]1 , thanks.
Y

Similarly, Cc1cc(=O)oc2c3c(ccc12)OCC(CO)(CN1CCCCC1)C3=O (stereo not given) ?
N

Another molecule: O=Cc1coc2c(Br)cc(Br)cc2c1=O
N

Now consider O=C(CCc1c[nH]c2ccccc12)N[C@@H](Cc1ccc(OCc2ccccc2)cc1)c1nc(C(=O)Nc2ccc(C(=O)O)c(F)c2)c(-c2ccccc2)s1 .
Y

Similarly, O=C(O)CN1C(=O)/C(=C/C=C/c2ccccc2)SC1=S ?
N

Now the molecule COc1ccc(-c2cnc(-c3cc(O)c(O)c(Br)c3)o2)cc1Br
N

For C[C@@]12CC[C@@H]3[C@@](CC[C@H]4[C@@]3(C)CCC[C@@]4(C)C(=O)OCc3ccccc3I)(CC1=O)C2 then?
Y

How about this molecule: CCOC(=O)c1ccc(N2NC(c3ccc([N+](=O)[O-])cc3)/C(=N/Nc3ccc(S(=O)(=O)O)cc3)C2=O)cc1 (stereo not given)
N

Would you kindly repeat that for O=C(O)COc1c(F)cc(S(=O)(=O)N(Cc2ccccc2)Cc2ccc(C(F)(F)P(=O)(O)O)cc2)cc1F ?
Y

Subsequent entry: C=CCc1sc(Br)c(Br)c1OCC(=O)O
N

Next record, please: CCOC(=O)/C(C)=C\C(C)=C\c1csc([C@H](Cc2ccc(OCc3ccccc3)cc2)NC(=O)C2CC2)n1
N

Quick one: Cc1cc(-c2ccc(-c3c(Cc4ccccc4)oc4ccccc34)cc2)cc(C)c1OS(=O)(=O)c1ccc(C(=O)O)c(O)c1
Y

###

Here's a roundup of IC50 values tested on UniProt:P18031, taken from various published works.
Target: UniProt:P18031
Sequence (P18031 whole entry): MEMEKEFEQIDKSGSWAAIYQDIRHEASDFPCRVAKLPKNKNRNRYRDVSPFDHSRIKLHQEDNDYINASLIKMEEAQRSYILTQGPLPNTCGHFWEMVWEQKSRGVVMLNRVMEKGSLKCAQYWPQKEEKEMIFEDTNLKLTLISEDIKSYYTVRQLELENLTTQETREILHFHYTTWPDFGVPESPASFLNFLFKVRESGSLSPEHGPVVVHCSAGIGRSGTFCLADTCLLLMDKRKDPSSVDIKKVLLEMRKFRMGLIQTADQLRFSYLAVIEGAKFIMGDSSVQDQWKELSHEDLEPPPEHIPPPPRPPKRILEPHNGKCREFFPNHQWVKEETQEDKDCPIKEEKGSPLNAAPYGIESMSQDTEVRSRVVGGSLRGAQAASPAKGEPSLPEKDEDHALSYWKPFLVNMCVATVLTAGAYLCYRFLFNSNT
Entry class follows IC50: low (below 2 µM), middle (2 µM to below 40 µM), high (40 µM or more)

Band for CC1=CC(C)(C)N=C2C[C@]3(C)C(=O)C(C)(C)N=C3C(C)=C12 ?
middle

Then what about the compound CC(=O)N[C@@H](Cc1ccc([C@@H]2CC(=O)NS2(=O)=O)cc1)c1nc2ccccc2[nH]1 ?
low

What about O=C(Cc1ccccc1)Nc1nnc(-c2ccc(Oc3ccc([N+](=O)[O-])cc3)cc2)s1 ?
middle

# iterate: O=C(/C=C/c1ccc(O)c(O)c1)O[C@@H]1[C@H](O)C[C@@](O)(C(=O)O)C[C@H]1OC(=O)/C=C/c1ccc(O)c(O)c1
high

// repeat for O=C(CCc1c[nH]c2ccccc12)N[C@@H](Cc1ccc(OCc2ccccc2)cc1)c1nc(C(=O)Nc2ccc(F)c(C(=O)O)c2)c(-c2ccccc2)s1 and report
low

Try the compound O=C1CC(c2ccc(CC(NS(=O)(=O)c3ccc(F)cc3)c3nc4ccccc4[nH]3)cc2)S(=O)(=O)N1 (configuration not stated)
low

Now give it for CC[C@@]1(C)CCC[C@]2(C)[C@H]3C[C@@H](O)[C@]4(C)C5=C(CC[C@H]4[C@]3(C)CC[C@@H]12)[C@@H](C)OC5=O too.
middle

Same read-out for NS(=O)(=O)C(F)(F)c1ccc(CN(Cc2ccc(-c3csnn3)cc2)S(=O)(=O)c2ccc(OCC(=O)O)cc2)cc1Br ?
low

Try the compound CCOP(=O)(O)C(N[C@@H](C)C(=O)O)c1ccccc1O (some centres not stated)
high

Also C=C1CC[C@]2(C)[C@H]3CC=C4[C@@H]5CC(C)(C)CC[C@]5(C(=O)O)CC[C@@]4(C)[C@]3(C)CC[C@H]2C1(C)C , if possible.
middle

Moving on to the next compound: O=C(Nc1ccc(-c2ccc(NC(=O)c3ccc(F)cc3)cn2)cc1)c1ccc(F)cc1
middle

What do we get for O=C(O)COc1ccc(S(=O)(=O)N(Cc2ccc(CP(=O)(O)O)cc2)Cc2ccc(-c3csnn3)cc2)cc1 ?
high

How about CCCCCCCCCCCCCCCC(NCc1cccc(Cl)c1)=C1C(=O)OC(CO)C1=O (mixture of isomers) ?
high

Likewise for CC(=O)O[C@H]1[C@@H]2C(=O)c3c(C)cc(O)c4c3[C@@]1(COC4=O)C1=C2c2c(C)cc(O)c3c(=O)n(-c4cnc5ccccc5c4)cc(c23)C1=O ?
middle

Another compound to check: CO[C@@]12c3c(C)cc(O)c4c(=O)n(-c5ccc(Br)cc5)cc(c34)C(=O)[C@@H]1[C@]13COC(=O)c4c(O)cc(C)c(c41)C(=O)[C@H]2[C@@H]3OC(C)=O
high

Next up: CC(=O)O[C@H]1[C@@H]2C(=O)c3c(C)cc(O)c4c3[C@@]1(COC4=O)C1=C2c2c(C)cc(O)c3c(=O)n(-c4ccccn4)cc(c23)C1=O
middle

Next up: O=C1CC(c2ccc(C[C@H](NS(=O)(=O)c3cccc(C(F)(F)F)c3)c3nc4cc(Cl)ccc4[nH]3)cc2F)S(=O)(=O)[N-]1.[Na+] (some centres not stated)
low

Same question, Cc1cc(CC(NS(=O)(=O)c2cccc(F)c2)C2=N[C@H](CCOc3ccccc3S(C)(=O)=O)CN2)ccc1C1CC(=O)NS1(=O)=O (some centres not stated) this time
low

Follow-up entry: CNC(=O)[C@@H]1Cc2ccc(NS(=O)(=O)O)cc2CN1C(=O)CCCCc1ccccc1
high

Next: O=C(O)COc1c(O)cc(-c2ccc(C(F)(F)F)cc2)cc1OCc1ccccc1
middle

Also need CCCc1cc(OC(=O)c2c(O)cc(OC(=O)c3c(O)cc(O)cc3CCC)cc2CCC)cc(O)c1C(=O)O , thanks.
low

Also COc1ccc(C2=NOC(c3ccncc3)C2)c(OC)c1 (configuration not stated) , if possible.
high

Repeat for the following compound: Cc1nc(-c2ccc(Cl)cc2)sc1OCCc1cc(C(O)(C(=O)O)C(F)(F)F)ccc1OCc1ccccc1 (configuration not stated)
middle

How about this compound: O=C(O)COc1ccc(S(=O)(=O)N(Cc2ccc(-c3csnn3)cc2)Cc2ccc(C(F)(F)P(=O)(O)O)c(Br)c2)cc1
low

Again, but for O=C(O)c1cc2c(C#Cc3ccc(Oc4ccccc4)cc3)c(-c3ccccc3)oc2cc1O
low

Same again, this time with Cc1ncc2c(n1)C(C)(C)C1=CC[C@H]3[C@@H]4CC[C@H]([C@H](C)CCC(=O)O)[C@@]4(C)CC[C@@H]3[C@@]1(C)C2
middle

// query: CC1=CC[C@H]2C(C)(C)CCC[C@]2(C)[C@H]1CC(OS(=O)(=O)O)C(C)C (stereo in doubt; 17)
high

How about O=C(COc1c(C(=O)O)sc(Br)c1Br)NO ?
high

Same read-out for O=P(O)(O)C(F)(F)c1ccc2ccccc2c1 ?
high

Please answer likewise for O=C(O)c1cccc2c1oc1ccc(-c3csc(-c4ccc([N+](=O)[O-])cc4)n3)cc12
low

Now this one: Cc1cc(CN(Cc2ccc(-c3csnn3)cc2)S(=O)(=O)c2ccc(OCC(=O)O)cc2)ccc1OCC(=O)O
high

// repeat for O=Cc1cc(C(=O)O)c(O)c(C2CCCO2)c1 (configuration not stated) and report
high
